Tested on: IR45
Experiment: imine reduction kinetics
Settings: read-out: F190L-W191F / K m; NADPH-dependent
measured-attribute: Km
Answer with the value and then the unit.

Use the examples below as a reference point.
> print(dat)
                              test.smiles  recorded.result
1  COc1ccc(CC2=NCCc3cc(OC)c(OC)cc32)cc1OC           353 µM
2        COc1cc2c(cc1OC)C(Cc1ccccc1)=NCC2           252 µM
3   COc1ccc(C2=NCCc3cc(OC)c(OC)cc32)cc1OC           307 µM
4  COc1cc2c(cc1OC)C(c1ccc3c(c1)OCO3)=NCC2           123 µM

COc1cc2c(cc1OC)C(c1cc(OC)c(OC)c(OC)c1)=NCC2 on IR45 gives Km = 372 µM

All values here come from paper PMC7067268.
